# conditions: in ethyl acetate, 318.15 K

- compound_structure_string: "O=C(O)c1ccc(Cl)cc1Cl"
  solubility (mole fraction): 0.0654

====

# conditions: in isopropanol, 298.15 K
reported_property: solubility (mole fraction)

- compound_structure_string: "O=C(O)c1ccc(Cl)cc1Cl"
  recorded_measurement: 0.0627

====

# conditions: in ethyl acetate, 273.15 K
reported_property: solubility (mole fraction)

- compound_structure_string: "O=C(O)c1ccc(Cl)cc1Cl"
  recorded_measurement: 0.0232

====

# conditions: in ethyl acetate, 298.15 K

- compound_structure_string: "O=C(O)c1ccc(Cl)cc1Cl"
  solubility (mole fraction): 0.0441
